- PROCEDURE_TEXT: Minimum cytotoxic concentration in primary rabbit kidney cell cultures
- Assay type: cell-based, Oryctolagus cuniculus
- RUN_CONDITIONS: primary rabbit kidney cells
QUANTITY_KIND: MCC (µg/mL)
Express the result in µg/mL but write the number alone.

Ask | I would be grateful if you could share the reported MCC for Cc1cn(C2C=C(C#N)C(CO)O2)c(=O)[nH]c1=O (stereo not drawn) .
Reply | 200

Ask | Consider next the molecule Cc1cn(C2OC(CO)C(C#N)C2O)c(=O)[nH]c1=O (stereo not drawn) in the same way.
Reply | 400

====

- PROCEDURE_TEXT: Minimum cytotoxic concentration in primary rabbit kidney cell cultures
- Type: cell-based, Oryctolagus cuniculus
- RUN_CONDITIONS: primary rabbit kidney cells
QUANTITY_KIND: MCC

Ask | Form field: reported MCC of `N#C[C@@H]1[C@@H](O)[C@H](n2ccc(=O)[nH]c2=O)O[C@@H]1CO`
Reply | > 200 µg/mL

Ask | Also `Cc1cn([C@H]2C[C@H](C#N)[C@@H](CO)O2)c(=O)[nH]c1=O` , if possible.
Reply | 100 µg/mL

Ask | Same thing, different molecule: `CC(C)(C)[Si](C)(C)OC[C@H]1O[C@@H](n2ccc(=O)[nH]c2=O)[C@H](O[Si](C)(C)C(C)(C)C)[C@@H]1C#N`
Reply | > 10 µg/mL

Ask | // query: `N#C[C@H]1[C@@H](O)[C@H](n2ccc(=O)[nH]c2=O)O[C@@H]1CO`
Reply | > 200 µg/mL

Ask | Would you kindly repeat that for `N#C[C@@H]1[C@@H](O)[C@H](n2cnc3c(N)ncnc32)O[C@@H]1CO` ?
Reply | 200 µg/mL

Ask | Consider next the molecule Nc1nccc2c1ncn2[C@@H]1C[C@H](CO)[C@@H](O)[C@H]1O [3-DEAZAARISTEROMYCIN A] in the same way.
Reply | > 400 µg/mL

Measured values drawn from ChEMBL document CHEMBL1124622 for this set.
